These entries and their values trace back to patent US8030478B2.

Target: Klenow fragment lacking exonuclease activity (KF exo−) (Escherichia coli, UniProt P00582, D355A/E357A)
Construct: enzyme solution of the Klenow fragment lacking exonuclease activity (KF exo^−, Amersham USB); purchased Amersham USB
Sequence (P00582 324-928 D355A/E357A): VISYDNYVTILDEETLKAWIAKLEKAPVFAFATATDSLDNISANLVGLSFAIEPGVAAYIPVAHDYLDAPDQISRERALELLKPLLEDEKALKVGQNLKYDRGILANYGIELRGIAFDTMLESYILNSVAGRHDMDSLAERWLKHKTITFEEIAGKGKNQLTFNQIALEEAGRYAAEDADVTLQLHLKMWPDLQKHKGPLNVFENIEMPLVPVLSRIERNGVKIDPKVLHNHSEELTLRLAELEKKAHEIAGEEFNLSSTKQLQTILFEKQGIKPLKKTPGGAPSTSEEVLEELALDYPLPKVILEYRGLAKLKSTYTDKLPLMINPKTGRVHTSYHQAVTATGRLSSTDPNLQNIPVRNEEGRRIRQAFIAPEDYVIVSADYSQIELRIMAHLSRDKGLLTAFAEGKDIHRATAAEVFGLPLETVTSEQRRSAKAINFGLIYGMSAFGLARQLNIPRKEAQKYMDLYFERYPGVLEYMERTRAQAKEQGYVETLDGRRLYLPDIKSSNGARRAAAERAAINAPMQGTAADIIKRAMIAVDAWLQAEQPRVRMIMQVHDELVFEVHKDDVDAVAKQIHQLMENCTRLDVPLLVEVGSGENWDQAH
Type: biochemical, E. coli
Conditions: template (N) = A, temp35N-1; 37° C.
READOUT TYPE: Km (µM)
Please give a number only; it is taken to be in µM.

Examples with answers:
[[record]]
molecule = "CC#Cc1cc(C=O)n([C@H]2C[C@H](O)[C@@H](COP(=O)(O)OP(=O)(O)OP(=O)(O)O)O2)c1"
endpoint_result = 110

[[record]]
molecule = "O=Cc1cccn1[C@H]1C[C@H](O)[C@@H](COP(=O)(O)OP(=O)(O)OP(=O)(O)O)O1"
endpoint_result = 330

[[record]]
molecule = "Cc1cn([C@H]2C[C@H](O)[C@@H](COP(=O)(O)OP(=O)(O)OP(=O)(O)O)O2)c(=O)[nH]c1=O [dTTP, reference compound]"
endpoint_result = 0.7


Could you now look at the following molecule, please?
## Input Name the recorded Km of the item Nc1ccn([C@H]2C[C@H](O)[C@@H](COP(=O)(O)OP(=O)(O)OP(=O)(O)O)O2)c(=O)n1 [dCTP, reference compound] in your answer.
## Output 1200

* * *

Target: Klenow fragment lacking exonuclease activity (KF exo−) (Escherichia coli, UniProt P00582, D355A/E357A)
Construct: enzyme solution of the Klenow fragment lacking exonuclease activity (KF exo^−, Amersham USB); purchased Amersham USB
Format: biochemical, E. coli
Conditions: template (N) = T, temp35N-2; 37° C.
Description: The single nucleotide insertion experiment was performed as described in documents (Non-patent Documents 30-32). […] The diluted products were analyzed in an automated ABI377 DNA sequencer equipped with GeneScan software (version 3.0) (Non-patent Document 32). The relative velocity (v0) was calculated by dividing the extent of reaction by the reaction time, and then normalized to the enzyme concentration (20 nM) for the various enzyme concentrations used. […]
Some compounds, each annotated with its measured Vmax.
Please give a number only; it is taken to be in % min^−1.

Examples with answers:
[[record]]
compound = "O=P(O)(O)OP(=O)(O)OP(=O)(O)OC[C@H]1O[C@@H](n2cnc3c(-c4cccs4)ccnc32)C[C@@H]1O"
endpoint_result = 3.9

[[record]]
compound = "Nc1nc2c(ncn2[C@H]2C[C@H](O)[C@@H](COP(=O)(O)OP(=O)(O)OP(=O)(O)O)O2)c(=O)[nH]1 [dGTP, reference compound]"
endpoint_result = 12

[[record]]
compound = "NP(=O)(O)OP(=O)(O)OP(=O)(O)OC[C@H]1O[C@@H](n2cnc3c(-c4cccs4)ccnc32)C[C@@H]1O"
endpoint_result = 1.7


## Input Name the recorded Vmax of the item Nc1ncnc2c1ncn2[C@H]1C[C@H](O)[C@@H](COP(=O)(O)OP(=O)(O)OP(N)(=O)O)O1 in your answer.
## Output 3.2

* * *

Target: Klenow fragment lacking exonuclease activity (KF exo−) (Escherichia coli, UniProt P00582, D355A/E357A)
Construct: enzyme solution of the Klenow fragment lacking exonuclease activity (KF exo^−, Amersham USB); purchased Amersham USB
Type: biochemical, E. coli
Conditions: template (N) = A, temp35N-1; 37° C.
READOUT TYPE: Vmax (% min^−1)
Please give a number only; it is taken to be in % min^−1.

Examples with answers:
[[record]]
compound = "O=Cc1cccn1[C@H]1C[C@H](O)[C@@H](COP(=O)(O)OP(=O)(O)OP(=O)(O)O)O1"
readout_type = "Vmax"
unit_spec = "% min^−1"
endpoint_result = 17

[[record]]
compound = "Nc1ccn([C@H]2C[C@H](O)[C@@H](COP(=O)(O)OP(=O)(O)OP(=O)(O)O)O2)c(=O)n1 [dCTP, reference compound]"
readout_type = "Vmax"
unit_spec = "% min^−1"
endpoint_result = 2.2

[[record]]
compound = "Cc1cn([C@H]2C[C@H](O)[C@@H](COP(=O)(O)OP(=O)(O)OP(=O)(O)O)O2)c(=O)[nH]c1=O [dTTP, reference compound]"
readout_type = "Vmax"
unit_spec = "% min^−1"
endpoint_result = 2.8


## Input Name the recorded Vmax of the item CC#Cc1cc(C=O)n([C@H]2C[C@H](O)[C@@H](COP(=O)(O)OP(=O)(O)OP(=O)(O)O)O2)c1 in your answer.
## Output 20
